Tested on: HSV-1
assay details: HSV-1 Antiviral Assay (Vero cells, cell viability)
Type: cell-based
study conditions: Human alphaherpesvirus 1, 96 h; Vero cells, 80 TCID50 HSV-1, 4 days, cell viability; read-out: HSV-1 EC50
pEC50: −log10 of the molar value.
assay endpoint: pEC50

Cc1nc(N2C[C@H](C)CN(c3ccc(-c4ccccc4Cl)cc3)C2=O)sc1S(N)(=O)=O (single isomer, unassigned); > 7.00

We next turn to a different compound, shown below.
Ask: Supply reported pEC50 belonging to this compound: `Cc1nc(N2CCCN(c3ccc(-c4cc(F)cc(Br)c4F)cc3)C2=O)sc1S(N)(=O)=O`
Result: > 7.00
